biological target: activated α4β1 integrin (Homo sapiens, UniProt P05556+P13612); assay type: cell-based; conditions: SAR summary, Molt-4 cell adhesion
Sequence (P13612 34-1032): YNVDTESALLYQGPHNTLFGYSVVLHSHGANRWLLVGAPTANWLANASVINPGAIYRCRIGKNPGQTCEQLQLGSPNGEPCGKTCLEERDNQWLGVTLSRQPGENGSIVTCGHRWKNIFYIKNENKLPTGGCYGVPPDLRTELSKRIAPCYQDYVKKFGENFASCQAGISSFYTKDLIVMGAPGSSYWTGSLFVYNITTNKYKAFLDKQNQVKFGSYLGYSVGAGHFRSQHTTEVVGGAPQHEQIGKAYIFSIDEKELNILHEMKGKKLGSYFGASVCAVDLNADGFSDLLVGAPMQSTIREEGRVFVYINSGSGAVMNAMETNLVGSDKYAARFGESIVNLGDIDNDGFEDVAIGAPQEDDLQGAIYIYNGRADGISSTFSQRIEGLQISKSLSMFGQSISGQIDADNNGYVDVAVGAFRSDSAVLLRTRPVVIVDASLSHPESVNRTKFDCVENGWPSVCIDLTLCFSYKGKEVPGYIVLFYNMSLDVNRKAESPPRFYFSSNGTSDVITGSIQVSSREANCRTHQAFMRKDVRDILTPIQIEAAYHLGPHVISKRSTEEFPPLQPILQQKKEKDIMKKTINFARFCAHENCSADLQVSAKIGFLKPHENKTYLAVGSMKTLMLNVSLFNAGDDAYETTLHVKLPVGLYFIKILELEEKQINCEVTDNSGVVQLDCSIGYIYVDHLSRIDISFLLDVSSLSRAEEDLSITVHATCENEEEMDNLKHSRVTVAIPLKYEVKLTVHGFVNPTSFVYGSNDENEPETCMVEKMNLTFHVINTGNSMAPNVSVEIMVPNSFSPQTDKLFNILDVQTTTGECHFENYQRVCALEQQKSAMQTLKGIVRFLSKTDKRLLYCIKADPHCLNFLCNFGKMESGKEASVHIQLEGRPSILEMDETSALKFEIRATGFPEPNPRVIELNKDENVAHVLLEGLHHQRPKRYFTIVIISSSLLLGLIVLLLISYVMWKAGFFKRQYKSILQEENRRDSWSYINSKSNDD
Sequence (P05556 21-798): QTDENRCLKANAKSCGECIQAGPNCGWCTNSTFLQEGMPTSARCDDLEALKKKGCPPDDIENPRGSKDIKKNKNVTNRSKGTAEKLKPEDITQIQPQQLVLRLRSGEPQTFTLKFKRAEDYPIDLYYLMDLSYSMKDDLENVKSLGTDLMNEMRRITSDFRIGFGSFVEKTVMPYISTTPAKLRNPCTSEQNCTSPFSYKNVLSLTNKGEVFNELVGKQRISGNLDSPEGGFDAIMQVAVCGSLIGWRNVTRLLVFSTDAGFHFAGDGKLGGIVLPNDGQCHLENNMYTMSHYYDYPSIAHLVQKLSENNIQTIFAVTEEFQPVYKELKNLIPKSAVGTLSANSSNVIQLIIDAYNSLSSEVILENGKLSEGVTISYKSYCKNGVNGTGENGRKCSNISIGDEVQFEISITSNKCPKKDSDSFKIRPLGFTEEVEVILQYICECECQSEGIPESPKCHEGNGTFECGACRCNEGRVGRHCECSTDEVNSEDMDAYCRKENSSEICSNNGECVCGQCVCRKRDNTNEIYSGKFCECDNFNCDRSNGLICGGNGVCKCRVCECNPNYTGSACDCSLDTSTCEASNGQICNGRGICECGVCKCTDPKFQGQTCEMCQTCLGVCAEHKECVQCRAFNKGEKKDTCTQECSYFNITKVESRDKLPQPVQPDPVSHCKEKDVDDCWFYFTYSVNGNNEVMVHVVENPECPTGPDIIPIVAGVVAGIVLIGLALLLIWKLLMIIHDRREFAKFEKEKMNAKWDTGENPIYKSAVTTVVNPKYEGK
assay.metric: potency (in words)

NC(=O)C1(NC(=O)[C@@H](CCCC(=O)O)NC(=O)[C@@H](CCCCNC(=O)/C=C/c2cccnc2)NC(=O)c2ccc(Nc3nc4ccccc4s3)cc2)CCCCC1 = mid nM potency
Cc1ccc2[nH]c(Nc3ccc(C(=O)N[C@H](CCCCNC(=O)/C=C/c4cccnc4)C(=O)N[C@H](CCCC(=O)O)C(=O)NC4(C(N)=O)CCCCC4)cc3)nc2c1 = mid nM potency
Cc1cccc2oc(Nc3ccc(C(=O)N[C@H](CCCCNC(=O)/C=C/c4cccnc4)C(=O)N[C@H](CCCC(=O)O)C(=O)NC4(C(N)=O)CCCCC4)cc3)nc12 = complete loss of potency
NC(=O)C1(NC(=O)[C@@H](CCCC(=O)O)NC(=O)[C@@H](CCCCNC(=O)/C=C/c2cccnc2)NC(=O)c2ccc(Nc3nc4ccccc4o3)cc2)CCCCC1 = complete loss of potency

----------
biological target: activated α4β1 integrin (Homo sapiens, UniProt P05556+P13612)
assay.metric: pIC50
// pIC50 here means minus log10 of the molar concentration (mol/L)

Entry under test: NC(=O)C1(NC(=O)[C@@H](CCCC(=O)O)NC(=O)[C@@H](CCCCNC(=O)/C=C/c2cccnc2)NC(=O)c2cccc(Nc3nc4cc(Br)ccc4[nH]3)c2)CCCCC1 . Its pIC50 was 7.52

pIC50 in this record for Cc1ccc2[nH]c(Nc3ccc(C(=O)N[C@H](CCCCNC(=O)/C=C/c4cccnc4)C(=O)N[C@H](CCCC(=O)O)C(=O)NC4(C(N)=O)CCCCC4)cc3)nc2c1 : 6.31
